- System: pronase
- experiment: Proteolytic stability against pronase digestion (HPLC)
- Type: in vitro ADME, Streptomyces griseus K-1
- Set-up: key: +: Pronase stable; ++: Intermediate Pronase stability; +++: Pronase unstable
- recorded_conditions: pH 9.0, 37° C., 18 h, 400 μM compound
observable: Pronase Degradation (pH 9)

CC(C)CN(C(=O)CCCOc1cccc(-c2nc3ccc(-c4nc5cc(N6CCN(C)CC6)ccc5[nH]4)cc3[nH]2)c1)[C@H](C)C(=O)N(CC(C)C)[C@H](C)C(=O)N(CC(C)C)[C@H](C)C(=O)N(CC(C)C)[C@H](C)C(=O)N[C@@H](CCCCNC(=O)CCCOc1cccc(-c2nc3cc(-c4nc5cc(N6CCN(C)CC6)ccc5[nH]4)ccc3[nH]2)c1)C(N)=O | +++
CN1CCN(c2ccc3[nH]c(-c4ccc5nc(-c6cccc(OCCCC(=O)NCCCNCCCCNCCCNC(=O)CCCOc7cccc(-c8nc9ccc(-c%10nc%11cc(N%12CCN(C)CC%12)ccc%11[nH]%10)cc9[nH]8)c7)c6)[nH]c5c4)nc3c2)CC1 | +
